Assignment: determine reported IC50 for the given molecules.
- System: KRas-mediated Phosphorylation of ERK in PSN1 cells
- Procedure Details: Cisbio HTRF pERK assay, PSN1 cells
- Type: cell-based
- Measurement Parameters: 3 hour compound, read-out: Inhibition (HTRF IC50 nM) of KRas-mediated Phosphorylation of ERK, PSN1
Numbers only, in nM.

The cases that follow already have their IC50 on record.
>>> numeric_value("N#Cc1c(N)sc2c(F)ccc(-c3c(Cl)cc4c(N5CCCn6nc(N)c(Cl)c6C5)nc(OC[C@@]56CCCN5C[C@H](F)C6)nc4c3F)c12 (atropisomer, axis not shown; (aS)) [Example 188]")
544
>>> numeric_value("C=C1CN2CCC[C@]2(COc2nc(N3CC4CCC(C3)N4)c3cc(Cl)c(-c4ccc(F)c5sc(N)c(C#N)c45)c(F)c3n2)C1 [Example 181]")
5260
>>> numeric_value("CN(C)C(=O)n1cc2c(n1)CCCN(c1nc(OC[C@@]34CCCN3C[C@H](F)C4)nc3c(F)c(-c4ccc(F)c5sc(N)c(C#N)c45)c(Cl)cc13)C2 [Example 185]")
1800

# ---- query molecule ----
Enquiry: Any idea what its IC50 is? The molecule is C=C1CN2CCC[C@]2(COc2nc(N3CC4CCC(C3)N4)c3cc(Cl)c(-c4ccc(F)c5sc(N)c(C#N)c45)c(F)c3n2)C1 [Example 182]
Return: 1820

----------
- System: KRas-mediated Phosphorylation of ERK in H727 cells
- Procedure Details: Cisbio HTRF pERK assay, H727 cells
- Format: cell-based
- Measurement Parameters: Homo sapiens, NCI-H727, 3 h, 3 hrs compound, read-out: Inhibition (HTRF IC50 nM) of KRas-mediated Phosphorylation of ERK, H727
Assay Endpoint: IC50
Provide a numeric answer, followed by its unit.

Here are 2 compounds together with their reported answers.
>>> result("N#Cc1c(N)sc2c(F)ccc(-c3c(Cl)cc4c(N5CCCCCC5)nc(OC[C@@]56CCCN5C[C@H](F)C6)nc4c3F)c12")
"22 nM"
>>> result("N#Cc1c(N)sc2c(F)ccc(-c3c(Cl)cc4c(N5CCC5)nc(OC[C@@]56CCCN5C[C@H](F)C6)nc4c3F)c12")
"55 nM"

Please turn your attention to the following entry.
Enquiry: Which IC50 value is on record for N#Cc1c(N)sc2c(F)ccc(-c3c(Cl)cc4c(NC5CS(=O)(=O)C5)nc(OC[C@@]56CCCN5C[C@H](F)C6)nc4c3F)c12 ?
Return: 429 nM

----------
- Tested System: KRas^G12V (Homo sapiens, UniProt P01116, G12V)
- Construct: Biotinylated KRas (corresponding to amino acids 1-169, produced at Accelegan Inc.); biotin (biotinylated); purchased Accelegan Inc
- Sequence (P01116 1-169 isoform P01116-2 G12V): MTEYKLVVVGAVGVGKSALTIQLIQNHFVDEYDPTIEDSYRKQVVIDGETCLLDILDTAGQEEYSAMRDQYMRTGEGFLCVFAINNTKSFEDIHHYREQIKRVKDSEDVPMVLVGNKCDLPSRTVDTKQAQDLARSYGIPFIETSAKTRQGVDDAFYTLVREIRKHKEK
- Procedure Details: KRas TR-FRET tracer displacement binding assay, G12V
- Measurement Parameters: 60-minute incubation
Response field label takes MET when IC50 is strictly below 10 nM and NOT MET in all other cases.

These recorded examples may help you get a feel for the data.
>>> class_name("CCc1c(F)ccc2cc(O)cc(-c3c(F)cc4c(NCc5c[nH]c6ncccc56)nc(OC[C@@]56CCCN5C[C@H](F)C6)nc4c3F)c12")
"MET"
>>> class_name("C=Cc1cc2c(N3CCCn4nc(C(=O)N(C)C)cc4C3)nc(OC[C@@]34CCCN3C[C@H](F)C4)nc2c(F)c1-c1ccc(F)c2sc(N)c(C#N)c12")
"MET"
>>> class_name("C[C@@]1(O)COCCN(c2nc(OC[C@@]34CCCN3C[C@H](F)C4)nc3c(F)c(-c4ccc(F)c5sc(N)c(C#N)c45)c(F)cc23)C1")
"MET"
>>> class_name("N#Cc1c(N)sc2c(F)ccc(-c3c(Cl)cc4c(N5CCCOC6CC65)nc(OC[C@@]56CCCN5C[C@H](F)C6)nc4c3F)c12 (single isomer, unassigned) [Example 213]")
"MET"
>>> class_name("N#Cc1c(N)sc2c(F)ccc(-c3c(Cl)cc4c(N5CCC5CO)nc(OC[C@@]56CCCN5C[C@H](F)C6)nc4c3F)c12 (stereo partly shown)")
"MET"

Enquiry: Is IC50 of N#Cc1c(N)sc2c(F)ccc(-c3c(Cl)cc4c(N5CCCOC6CC65)nc(OC[C@@]56CCCN5C[C@H](F)C6)nc4c3F)c12 (single isomer, unassigned) [Example 212] strictly below 10 nM?
Return: NOT MET

Enquiry: Repeat for the following compound: N#Cc1c(N)sc2c(F)ccc(-c3c(Cl)cc4c(N5CCCCC(F)C5)nc(OC[C@@]56CCCN5C[C@H](F)C6)nc4c3F)c12 (stereo partly shown)
Return: MET

Enquiry: CC1CN(C)CCCN1c1nc(N(C)C)c2cc(Cl)c(-c3ccc(F)c4sc(N)c(C#N)c34)c(F)c2n1 (stereo not shown) ?
Return: NOT MET

Enquiry: What about Cc1c(F)c(N)nc(-c2c(Cl)cc3c(NC(C)c4cccnc4N)nc(OC[C@@]45CCCN4C[C@H](F)C5)nc3c2F)c1C(F)(F)F (single isomer, unassigned; isomer 2) [Example 173] ?
Return: NOT MET

Enquiry: Now consider CN(C)C(=O)c1cc2n(n1)CCCN(c1nc(OC[C@@]34CCCN3C[C@H](F)C4)nc3c(F)c(-c4ccc(F)c5sc(N)c(C#N)c45)c(F)cc13)C2 and answer again.
Return: MET

----------
- System: KRas-mediated Phosphorylation of ERK in PSN1 cells
- Procedure Details: Cisbio HTRF pERK assay, PSN1 cells
- Format: cell-based
- Measurement Parameters: 3 hour compound, read-out: Inhibition (HTRF IC50 nM) of KRas-mediated Phosphorylation of ERK, PSN1
- Experimental: Inhibition of KRas Phosphorylation of ERK (HTRF) by Exemplary Compounds of Formula (I) • Cisbio HTRF Advanced pERK Assay Catalog #64AERPEH • Cell: MKN1, PSN1 • Procedure: • Day 1: Seed 6,000 cells/well −25 μl/well in 384-well white solid bottom plate; RPM1_10% FBS.
Can you tell me IC50 for the items I'm about to list?

Examples from the recorded data:
>>> result("N#Cc1c(N)sc2c(F)ccc(-c3c(Cl)cc4c(N5CCCn6nc(N)c(Cl)c6C5)nc(OC[C@@]56CCCN5C[C@H](F)C6)nc4c3F)c12 (atropisomer, axis not shown; (aS)) [Example 189]")
"7470 nM"
>>> result("C=C1CN2CCC[C@@]2(COc2nc(N3CC4CCC(C3)N4)c3cc(Cl)c(-c4ccc(F)c5sc(N)c(C#N)c45)c(F)c3n2)C1 [Example 183]")
"6150 nM"
>>> result("CN(C)C(=O)n1cc2c(n1)CCCN(c1nc(OC[C@@]34CCCN3C[C@H](F)C4)nc3c(F)c(-c4ccc(F)c5sc(N)c(C#N)c45)c(Cl)cc13)C2 (atropisomer, axis not shown; (aS)) [Example 186]")
"> 10000 nM"
>>> result("Cc1c(F)c(N)nc(-c2c(Cl)cc3c(NC(C)c4cccnc4N)nc(OC[C@@]45CCCN4C[C@H](F)C5)nc3c2F)c1C(F)(F)F (single isomer, unassigned; isomer 1) [Example 172]")
"4290 nM"

Please examine the following record next.
Enquiry: // IC50 lookup, key: C=C1CN2CCC[C@@]2(COc2nc(N3CC4CCC(C3)N4)c3cc(Cl)c(-c4ccc(F)c5sc(N)c(C#N)c45)c(F)c3n2)C1 [Example 184]
Return: 701 nM

----------
- System: KRas-mediated Phosphorylation of ERK in H2009 cells
- Procedure Details: Cisbio HTRF pERK assay, H2009 cells
- Type: cell-based
- Measurement Parameters: H2009 cells; read-out: Inhibition (HTRF IC50 nM) of KRas-mediated Phosphorylation of ERK, H2009
What IC50 was measured for each of the following?
One number for each entry, in nM.

>>> numeric_value("Cc1c(F)c(N)nc(-c2c(Cl)cc3c(NC(C)c4cccnc4N)nc(OC[C@@]45CCCN4C[C@H](F)C5)nc3c2F)c1C(F)(F)F (single isomer, unassigned; isomer 1) [Example 172]")
8

Consider now this further molecule.
Enquiry: Any idea what IC50 was measured for Cc1c(F)c(N)nc(-c2c(Cl)cc3c(NC(C)c4cccnc4N)nc(OC[C@@]45CCCN4C[C@H](F)C5)nc3c2F)c1C(F)(F)F (single isomer, unassigned; isomer 2) [Example 173] ?
Return: 40

----------
- Tested System: KRas^G12S (Homo sapiens, UniProt P01116, G12S)
- Construct: Biotinylated KRas (corresponding to amino acids 1-169, produced at Accelegan Inc.); biotin (biotinylated); purchased Accelegan Inc
- Sequence (P01116 1-169 isoform P01116-2 G12S): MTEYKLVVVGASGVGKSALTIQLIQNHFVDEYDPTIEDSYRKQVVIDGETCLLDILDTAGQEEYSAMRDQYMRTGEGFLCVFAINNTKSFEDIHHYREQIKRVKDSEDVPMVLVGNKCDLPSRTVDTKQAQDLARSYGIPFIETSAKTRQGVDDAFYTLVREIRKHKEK
- Procedure Details: KRas TR-FRET tracer displacement binding assay, G12S
- Measurement Parameters: 60-minute incubation
Assay Endpoint: IC50 (nM)
Give bare numbers, in nM.

In the examples that follow, each entry is paired with its recorded IC50.
>>> numeric_value("N#Cc1c(N)sc2c(F)ccc(-c3c(C4CC4)cc4c(N5C[C@H]6CC[C@@H](C5)N6)nc(OC[C@@]56CCCN5C[C@H](F)C6)nc4c3F)c12 [Example 208]")
4
>>> numeric_value("N#Cc1c(N)sc2c(F)ccc(-c3c(Cl)cc4c(N5CCCOC6CC65)nc(OC[C@@]56CCCN5C[C@H](F)C6)nc4c3F)c12 (single isomer, unassigned) [Example 213]")
5
>>> numeric_value("Cc1c(F)c(N)nc(-c2c(Cl)cc3c(NC(C)c4cccnc4N)nc(OC[C@@]45CCCN4C[C@H](F)C5)nc3c2F)c1C(F)(F)F (single isomer, unassigned; isomer 1) [Example 172]")
3

As a next step, examine the compound that follows.
Enquiry: So what IC50 did N#Cc1c(N)sc2c(F)ccc(-c3c(Cl)cc4c(N5CCCOC6CC65)nc(OC[C@@]56CCCN5C[C@H](F)C6)nc4c3F)c12 (single isomer, unassigned) [Example 212] get with KRas^G12S (Homo sapiens, UniProt P01116, G12S)?
Return: 6
